FYI, the data here is from patent US4684647A.

Test: tissue levels by HPLC after oral administration to rats
Assay type: in vivo
Settings: liver; rat, 50 mg/kg oral, 15 h; read-out: Tissue level, liver
readout.name: concentration at 15 h (µg/mL)
Reply with just the number (in µg/mL).

Fill in the blank: the reported concentration at 15 h of `CN1CCN(c2c(F)cc3c(=O)c(C(=O)O)cn4c3c2SCC4)CC1` is ____.
11.3

###

Experiment: tissue levels by HPLC after oral administration to rats
Type: in vivo
Conditions: liver; rat, 50 mg/kg oral, 1 h; read-out: Tissue level, liver
readout.name: concentration at 1 h (µg/mL)
Reply with just the number (in µg/mL).

Fill in the blank: the reported concentration at 1 h of `CN1CCN(c2c(F)cc3c(=O)c(C(=O)O)cn4c3c2SCC4)CC1` is ____.
80.4

###

MIC, Klebsiella pneumoniae, per-entry values.
Reply with just the number (in µg/mL).

[[record]]
compound = "CC1CSc2c(Cl)c(F)cc3c(=O)c(C(=O)O)cn1c23 (stereo not drawn)"
readout_name = "MIC"
recorded_value = 0.78

[[record]]
compound = "O=C(O)c1cn2c3c(c(N4CCCC4)c(Cl)cc3c1=O)SCC2 [Comparison (d), reference compound]"
readout_name = "MIC"
recorded_value = 12.5

[[record]]
compound = "O=C(O)c1cn2c3c(c(Cl)c(F)cc3c1=O)SCC2"
readout_name = "MIC"
recorded_value = 0.78


Fill in the blank: the reported MIC of O=C(O)c1cn2c3c(c(N4CCCC4)c(F)cc3c1=O)[S+]([O-])CC2 (stereo not drawn) [(e)] is ____.
25

Please give the result for `O=C(O)c1cn2c3c(c(N4CCCC4)c(F)cc3c1=O)S(=O)(=O)CC2` too.
25

Please give the result for CC1CN(c2c(F)cc3c(=O)c(C(=O)O)cn4c3c2SCC4)CC(C)N1 (stereo not drawn) too.
6.25

Please give the result for `O=C(O)c1cn2c3c(c(N4CCCC4)c(F)cc3c1=O)SCC2` too.
1.56

Please give the result for CC1CSc2c(N3CCN(C)CC3)c(Cl)cc3c(=O)c(C(=O)O)cn1c23 (stereo not drawn) [Comparison (q), reference compound] too.
12.5

Please give the result for O=C(O)c1cn2c3c(c(Cl)c(Cl)cc3c1=O)SCC2 [Comparison (b), reference compound] too.
12.5

###

Assay: plasma levels by HPLC after intraperitoneal and oral administration to rats
Assay type: in vivo
Conditions: plasma, ip; rat, 25 mg/kg i.p., 4 h; read-out: Plasma level
readout.name: concentration at 4 h (µg/mL)
Reply with just the number (in µg/mL).

Fill in the blank: the reported concentration at 4 h of CN1CCN(c2c(F)cc3c(=O)c(C(=O)O)cn4c3c2SCC4)CC1 [Compound (h)] is ____.
5.01

###

Test: tissue levels by HPLC after oral administration to rats
Assay type: in vivo
Details: liver; rat, 50 mg/kg oral, 2 h; read-out: Tissue level, liver
readout.name: concentration at 2 h (µg/mL)
Reply with just the number (in µg/mL).

Fill in the blank: the reported concentration at 2 h of `CN1CCN(c2c(F)cc3c(=O)c(C(=O)O)cn4c3c2SCC4)CC1` is ____.
58.1

###

Assay: preliminary pharmacokinetic tests in dogs, oral
Type: in vivo
Conditions: plasma, po; dog, 20 mg/kg per os
readout.name: half-life (h)
Reply with just the number (in h).

Fill in the blank: the reported half-life of `CN1CCN(c2c(F)cc3c(=O)c(C(=O)O)cn4c3c2SCC4)CC1` is ____.
24
